Biological target: Tyrosine-protein kinase JAK1 (Homo sapiens, UniProt P23458)
Sequence (P23458 whole entry): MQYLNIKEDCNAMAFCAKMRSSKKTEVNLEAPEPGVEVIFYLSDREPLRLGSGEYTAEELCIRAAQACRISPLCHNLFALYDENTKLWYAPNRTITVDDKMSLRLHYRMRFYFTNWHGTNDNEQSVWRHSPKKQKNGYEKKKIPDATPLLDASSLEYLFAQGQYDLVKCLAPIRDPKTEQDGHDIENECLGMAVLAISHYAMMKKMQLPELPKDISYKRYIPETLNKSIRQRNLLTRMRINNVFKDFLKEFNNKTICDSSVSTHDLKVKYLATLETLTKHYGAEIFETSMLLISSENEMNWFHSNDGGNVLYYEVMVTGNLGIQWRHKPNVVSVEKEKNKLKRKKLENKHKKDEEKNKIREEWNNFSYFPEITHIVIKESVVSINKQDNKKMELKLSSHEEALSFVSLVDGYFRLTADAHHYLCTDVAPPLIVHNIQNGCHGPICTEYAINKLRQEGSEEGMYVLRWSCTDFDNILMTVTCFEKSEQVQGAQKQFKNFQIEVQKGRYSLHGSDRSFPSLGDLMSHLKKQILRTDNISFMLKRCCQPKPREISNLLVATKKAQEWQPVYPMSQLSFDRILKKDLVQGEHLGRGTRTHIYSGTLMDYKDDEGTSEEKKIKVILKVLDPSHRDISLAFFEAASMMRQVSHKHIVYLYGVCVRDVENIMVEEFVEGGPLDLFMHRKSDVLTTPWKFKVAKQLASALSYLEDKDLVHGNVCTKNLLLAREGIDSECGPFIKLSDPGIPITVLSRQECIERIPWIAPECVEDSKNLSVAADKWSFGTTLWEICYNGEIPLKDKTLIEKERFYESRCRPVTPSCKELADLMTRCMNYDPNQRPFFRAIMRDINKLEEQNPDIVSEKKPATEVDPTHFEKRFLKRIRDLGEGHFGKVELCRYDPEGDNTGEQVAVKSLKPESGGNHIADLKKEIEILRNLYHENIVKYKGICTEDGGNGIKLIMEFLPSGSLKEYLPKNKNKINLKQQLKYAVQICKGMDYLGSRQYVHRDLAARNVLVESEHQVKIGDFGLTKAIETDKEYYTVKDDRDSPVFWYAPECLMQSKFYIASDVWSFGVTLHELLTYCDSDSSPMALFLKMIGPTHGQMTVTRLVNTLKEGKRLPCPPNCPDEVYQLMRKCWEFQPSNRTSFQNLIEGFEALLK
Experiment: Inhibition of human JAK1 (866 to end residues) assessed as residual activity at 100 nM using GEEPLYWSFPAKK as substrate after 40 mins in presence of [gamma33P]-ATP by scintillation counting based radiometric assay relative to control
# Activity annotations
Answer with a number only, understood to be in %.

Example compounds with recorded Activity:
[
  {
    "compound": "Cc1cnc(Nc2ccc(N3CCC(N(C)CCCO)CC3)c(F)c2)nc1-c1cnn(C(C)C)c1",
    "unit-spec": "%",
    "Activity": 22
  },
  {
    "compound": "CC(C)n1cc(-c2nc(Nc3ccc(N4CCN(C5CCN(C)CC5)CC4)c(F)c3)ncc2F)cn1",
    "unit-spec": "%",
    "Activity": 54
  },
  {
    "compound": "Cc1cnc(Nc2ccc(N3CCC(N(C)CCN4CCCCC4)CC3)c(F)c2)nc1-c1cnn(C(C)C)c1",
    "unit-spec": "%",
    "Activity": 21
  },
  {
    "compound": "CCCn1cc(-c2nc(Nc3ccc(N4CCN(CC)CC4)c(F)c3)ncc2F)cn1",
    "unit-spec": "%",
    "Activity": 59
  },
  {
    "compound": "CCN1CCN(c2ccc(Nc3ncc(F)c(-c4cnn(C5CCCC5)c4)n3)cc2F)CC1",
    "unit-spec": "%",
    "Activity": 57
  }
]

// recorded Activity for Cc1cnc(Nc2ccc(N3CCN(C)CC3)c(F)c2)nc1-c1cnn(C(C)C)c1 : 35

Kindly note the recorded Activity for Cc1cnc(Nc2ccc(N3CCC(N(C)CCO)CC3)c(F)c2)nc1-c1cnn(C(C)C)c1 , which is 25

----------
System: MOLM-13
Assay: Antiproliferative activity against FLT3-ITD-positive human MOLM13 cells assessed as reduction in cell growth after 72 hrs by MTT assay
Type: functional, cell-based
Conditions: MOLM-13, 72 h
Reported pIC50 values for the following compounds.
# reply with the number alone; pIC50 is -log10 of concentration in mol/L

Some compounds with recorded pIC50:
[
  {
    "molecule": "CCN1CCN(c2ccc(Nc3ncc(F)c(-c4cnn(C(C)C)c4)n3)cc2F)CC1",
    "pIC50": 6.60
  },
  {
    "molecule": "CCCn1cc(-c2nc(Nc3ccc(N4CCN(C)CC4)cc3F)ncc2F)cn1",
    "pIC50": 5.01
  },
  {
    "molecule": "CC(C)n1cc(-c2nc(Nc3ccc(N4CCN(C5CCN(C)CC5)CC4)c(F)c3)ncc2F)cn1",
    "pIC50": 6.23
  },
  {
    "molecule": "Cc1cnc(Nc2ccc(N3CCC(NCCO)CC3)c(F)c2)nc1-c1cnn(C(C)C)c1",
    "pIC50": 6.26
  },
  {
    "molecule": "Cc1cnc(Nc2ccc(N3CCC(N(C)CCN4CCOCC4)CC3)c(F)c2)nc1-c1cnn(C(C)C)c1",
    "pIC50": 7.05
  },
  {
    "molecule": "CCOCCN(C)C1CCN(c2ccc(Nc3ncc(C)c(-c4cnn(C(C)C)c4)n3)cc2F)CC1",
    "pIC50": 7.55
  },
  {
    "molecule": "CCN1CCN(c2ccc(Nc3ncc(C)c(-c4cnn(C(C)C)c4)n3)cc2F)CC1",
    "pIC50": 5.40
  },
  {
    "molecule": "CCN(CCN1CCOCC1)C1CCN(c2ccc(Nc3ncc(C)c(-c4cnn(C(C)C)c4)n3)cc2F)CC1",
    "pIC50": 6.82
  }
]

# input for lookup
Per the records, this compound ( CCCCn1cc(-c2nc(Nc3ccc(N4CCN(C)CC4)c(F)c3)ncc2F)cn1 ) has pIC50 equal to 6.27

----------
Molecular target: JAK3/JAK1 (Homo sapiens, UniProt P23458+P52333)
Assay: Inhibition of JAK1/JAK3 in human PBMC cells assessed as reduction in IL-2-induced STAT5 phosphorylation by flow cytometry
Format: cell-based
measured-property: IC50 (nM)
API: value field is a number in nM; no unit string.

Noted for Cc1cnc(Nc2ccc(N3CCC(N(C)CCO)CC3)c(F)c2)nc1-c1cnn(C(C)C)c1 : its IC50 reads 112

----------
Molecular target: Tyrosine-protein kinase JAK3 (Homo sapiens, UniProt P52333)
Sequence (P52333 whole entry): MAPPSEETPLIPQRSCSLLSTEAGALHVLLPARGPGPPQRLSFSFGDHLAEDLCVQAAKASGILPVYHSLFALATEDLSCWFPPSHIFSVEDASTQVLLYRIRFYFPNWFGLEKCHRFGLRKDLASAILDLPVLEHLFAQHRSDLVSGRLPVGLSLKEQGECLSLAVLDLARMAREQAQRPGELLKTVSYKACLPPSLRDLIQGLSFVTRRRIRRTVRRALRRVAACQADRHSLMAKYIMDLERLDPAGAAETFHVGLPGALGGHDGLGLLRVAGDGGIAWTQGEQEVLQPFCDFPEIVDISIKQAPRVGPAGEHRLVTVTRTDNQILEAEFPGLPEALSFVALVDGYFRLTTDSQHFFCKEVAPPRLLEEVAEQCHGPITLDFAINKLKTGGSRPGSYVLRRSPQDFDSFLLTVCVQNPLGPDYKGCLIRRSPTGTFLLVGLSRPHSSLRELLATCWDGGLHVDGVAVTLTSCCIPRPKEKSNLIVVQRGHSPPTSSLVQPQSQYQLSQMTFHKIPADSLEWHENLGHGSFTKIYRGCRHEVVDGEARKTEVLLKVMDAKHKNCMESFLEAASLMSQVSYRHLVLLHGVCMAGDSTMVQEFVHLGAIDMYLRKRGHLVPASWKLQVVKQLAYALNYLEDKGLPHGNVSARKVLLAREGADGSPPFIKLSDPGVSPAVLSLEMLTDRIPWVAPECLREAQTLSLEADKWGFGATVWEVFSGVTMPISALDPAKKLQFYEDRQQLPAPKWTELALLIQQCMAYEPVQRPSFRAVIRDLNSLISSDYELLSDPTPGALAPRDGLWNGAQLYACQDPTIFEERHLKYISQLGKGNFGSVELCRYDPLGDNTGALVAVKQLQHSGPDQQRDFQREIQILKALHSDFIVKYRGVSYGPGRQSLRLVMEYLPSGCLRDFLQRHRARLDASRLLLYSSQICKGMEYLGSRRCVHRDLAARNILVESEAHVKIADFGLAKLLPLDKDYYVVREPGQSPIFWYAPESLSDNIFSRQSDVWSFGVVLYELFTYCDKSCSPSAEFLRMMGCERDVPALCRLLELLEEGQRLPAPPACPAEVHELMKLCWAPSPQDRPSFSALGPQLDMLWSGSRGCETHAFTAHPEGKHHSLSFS
The following compounds are listed with their measured IC50 values.
Number in nM, nothing else.

[
  {
    "molecule": "CCCCN(C)C1CCN(c2ccc(Nc3ncc(C)c(-c4cnn(C(C)C)c4)n3)cc2F)CC1",
    "target-or-system": "Tyrosine-protein kinase JAK3 (Homo sapiens, UniProt P52333)",
    "measured-property": "IC50",
    "assay-result": 39
  },
  {
    "molecule": "Cc1cnc(Nc2ccc(N3CCC(N(C)CCO)CC3)c(F)c2)nc1-c1cnn(C(C)C)c1",
    "target-or-system": "Tyrosine-protein kinase JAK3 (Homo sapiens, UniProt P52333)",
    "measured-property": "IC50",
    "assay-result": 39
  },
  {
    "molecule": "Cc1cnc(Nc2ccc(N3CCC(N(C)CCN4CCN(C)CC4)CC3)c(F)c2)nc1-c1cnn(C(C)C)c1",
    "target-or-system": "Tyrosine-protein kinase JAK3 (Homo sapiens, UniProt P52333)",
    "measured-property": "IC50",
    "assay-result": 103
  }
]

Now examine the next entry.
Entry Cc1cnc(Nc2ccc(N3CCC(N(C)CCCO)CC3)c(F)c2)nc1-c1cnn(C(C)C)c1 — recorded IC50 = 23

----------
// reported pIC50 per item
Target: Tyrosine-protein kinase JAK2 (Homo sapiens, UniProt O60674)
Sequence (O60674 whole entry): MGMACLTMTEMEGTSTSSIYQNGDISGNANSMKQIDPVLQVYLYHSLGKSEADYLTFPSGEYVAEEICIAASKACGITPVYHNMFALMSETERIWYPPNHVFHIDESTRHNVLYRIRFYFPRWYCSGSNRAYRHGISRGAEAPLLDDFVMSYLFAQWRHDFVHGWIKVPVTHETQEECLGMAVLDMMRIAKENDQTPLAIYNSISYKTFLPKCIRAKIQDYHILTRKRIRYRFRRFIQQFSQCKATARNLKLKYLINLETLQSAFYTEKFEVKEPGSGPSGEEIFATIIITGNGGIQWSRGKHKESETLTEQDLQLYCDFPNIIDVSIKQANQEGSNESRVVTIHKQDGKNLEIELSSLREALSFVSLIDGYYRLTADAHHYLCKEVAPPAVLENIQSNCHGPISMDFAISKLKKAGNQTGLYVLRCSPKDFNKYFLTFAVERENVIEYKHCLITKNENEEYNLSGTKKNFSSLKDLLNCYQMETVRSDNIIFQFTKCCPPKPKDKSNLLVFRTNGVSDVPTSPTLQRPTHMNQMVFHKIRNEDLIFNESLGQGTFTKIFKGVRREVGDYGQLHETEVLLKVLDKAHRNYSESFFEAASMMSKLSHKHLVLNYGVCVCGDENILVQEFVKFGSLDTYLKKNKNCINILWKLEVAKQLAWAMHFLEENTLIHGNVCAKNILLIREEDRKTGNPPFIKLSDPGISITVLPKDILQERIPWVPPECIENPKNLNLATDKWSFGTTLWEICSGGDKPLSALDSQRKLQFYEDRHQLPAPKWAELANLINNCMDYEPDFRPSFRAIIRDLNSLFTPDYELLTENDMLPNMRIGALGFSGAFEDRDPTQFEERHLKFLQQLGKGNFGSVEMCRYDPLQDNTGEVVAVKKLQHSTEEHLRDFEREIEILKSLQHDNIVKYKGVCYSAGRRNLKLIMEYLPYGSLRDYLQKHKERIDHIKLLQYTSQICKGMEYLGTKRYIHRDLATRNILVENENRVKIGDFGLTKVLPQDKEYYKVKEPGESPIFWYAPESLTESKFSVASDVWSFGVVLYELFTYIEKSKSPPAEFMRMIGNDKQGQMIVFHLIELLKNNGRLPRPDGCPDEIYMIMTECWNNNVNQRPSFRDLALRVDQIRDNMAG
Kindly note that pIC50 refers to -log10 of the concentration in mol/L and answer with the value alone.

[
  {
    "molecule": "CCCCN(C)C1CCN(c2ccc(Nc3ncc(C)c(-c4cnn(C(C)C)c4)n3)cc2F)CC1",
    "measured-property": "pIC50",
    "assay-result": 8.70
  }
]

For reference, reported pIC50 for Cc1cnc(Nc2ccc(N3CCC(N(C)CCN4CCN(C)CC4)CC3)c(F)c2)nc1-c1cnn(C(C)C)c1 stands at 8.52

Data point: Cc1cnc(Nc2ccc(N3CCC(N(C)CCCO)CC3)c(F)c2)nc1-c1cnn(C(C)C)c1 ; pIC50 = 9.00

----------
Target: Tyrosine-protein kinase Lyn (Homo sapiens)
Sequence (P07948 whole entry): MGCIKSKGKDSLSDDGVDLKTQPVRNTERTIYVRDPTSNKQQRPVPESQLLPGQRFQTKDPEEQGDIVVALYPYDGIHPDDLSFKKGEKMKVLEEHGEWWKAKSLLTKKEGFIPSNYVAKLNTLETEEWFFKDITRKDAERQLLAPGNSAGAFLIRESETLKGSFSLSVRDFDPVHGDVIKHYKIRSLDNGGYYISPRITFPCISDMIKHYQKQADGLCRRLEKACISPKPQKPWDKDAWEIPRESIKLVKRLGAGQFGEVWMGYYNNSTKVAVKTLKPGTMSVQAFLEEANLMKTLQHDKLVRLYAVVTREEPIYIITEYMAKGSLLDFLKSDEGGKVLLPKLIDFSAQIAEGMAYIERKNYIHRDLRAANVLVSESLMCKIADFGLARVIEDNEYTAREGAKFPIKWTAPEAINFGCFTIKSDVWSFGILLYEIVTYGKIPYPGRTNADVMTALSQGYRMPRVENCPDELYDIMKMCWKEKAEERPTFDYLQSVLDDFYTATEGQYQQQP
Test: Inhibition of recombinant full length human LYN using poly(Glu, Tyr) 4:1 as substrate incubated for 40 mins in presence of [gamma33P]-ATP by scintillation counting based radiometry assay
measured-property: IC50

Considering Cc1cnc(Nc2ccc(N3CCC(N(C)CCO)CC3)c(F)c2)nc1-c1cnn(C(C)C)c1 , its IC50 with Tyrosine-protein kinase Lyn (Homo sapiens) was recorded as 17 nM
